# Tested on: HOP-92 NSCLC
# Experiment Summary: NCI-60 one-dose screen, 48 h (100 = growth as untreated, 0 = no growth, -100 = all killed)
# Conditions Used: 10 µM unless noted
The panel holds about 83,000 compounds, 20% with a hit somewhere; the sample as a whole holds those more often.
Lab note: anything with growth at or over 40% counts as Criterion met; the rest go in Criterion not met.

Would you please look over these solved cases?
Task: # check: growth of COc1ccc(-c2cc(C(=O)N3N=C(c4ccc(N)cc4)CC3c3ccccc3)c3ccccc3n2)cc1 (centres undefined) is greater than or equal to 40%
Output: Criterion not met

Task: # check: growth of CN(CCC#N)c1ccc(/C=C2\NC(=O)NC2=O)cc1 is greater than or equal to 40%
Output: Criterion met

Task: # check: growth of OC(c1ccccc1)(c1ccccc1)c1ccccc1-c1ccccc1 is greater than or equal to 40%
Output: Criterion met

Task: # check: growth of O=C(N/N=C/c1ccc(Cl)cc1Cl)c1ccc2nc(-c3ccc(Cl)cc3)[nH]c2c1 is greater than or equal to 40%
Output: Criterion not met

Task: # check: growth of CS(=O)(=O)Nc1cncc(-c2ccc3ncnc(Nc4ccc(F)c(Cl)c4)c3c2)c1 is greater than or equal to 40%
Output: Criterion not met

New cases:
Task: # check: growth of C(/C=C/c1ccccc1)=Nc1ccc(CCc2ccc(N=C/C=C/c3ccccc3)cc2)cc1 is greater than or equal to 40%
Output: Criterion met

Task: # check: growth of CCN(CC)CCOc1ccc(Nc2ncc3cc(-c4ccc(O)cc4)c(=O)n(C)c3n2)cc1 is greater than or equal to 40%
Output: Criterion met

Task: # check: growth of Cc1nn(-c2ccccc2)c(N2CCCCC2)c1/C=N/NC(=O)Cn1c(=O)sc2ccccc21 is greater than or equal to 40%
Output: Criterion met

Task: # check: growth of COc1ccc(-c2cc(-c3ccc(OC)cc3)nc(NCCCNc3ccnc4cc(Cl)ccc34)n2)cc1 is greater than or equal to 40%
Output: Criterion met

Task: # check: growth of CCN1C(=O)N(CC)C2C1NN=c1s/c(=C\c3ccccc3Br)c(=O)n12 (centres undefined) is greater than or equal to 40%
Output: Criterion not met

Task: # check: growth of COC(=O)C1=C(C(=O)Nc2cccnc2)C2OC1(C(Cc1ccccc1)Oc1ccccc1)C1OC21 (centres undefined) is greater than or equal to 40%
Output: Criterion not met

Task: # check: growth of Cc1ccc(-c2cc(C(=O)N3N=C(c4ccc(N)cc4)CC3c3ccc(Cl)cc3)c3ccccc3n2)cc1 (centres undefined) is greater than or equal to 40%
Output: Criterion met

Task: # check: growth of COc1cc(/C=C\c2cc(/C=C\c3ccc(O)c(OC)c3)n(C(=O)CNc3ccc(Cl)cc3)n2)ccc1O is greater than or equal to 40%
Output: Criterion met

Task: # check: growth of O=C(Nc1nc(C(=O)N2CCN(C(c3ccccc3)c3ccccc3)CC2)cs1)c1ccc(NC2CCCCC2)c([N+](=O)[O-])c1 is greater than or equal to 40%
Output: Criterion met

Task: # check: growth of COc1ccc2c(c1)c(-c1cc(-c3cn(C)c4ccc(OC)cc34)on1)cn2C is greater than or equal to 40%
Output: Criterion met

Task: # check: growth of C/C(=C(/c1ccc(Cl)cc1)c1ccc(OCCCN(C)C)cc1)c1ccc(Cl)cc1 is greater than or equal to 40%
Output: Criterion met

Task: # check: growth of CCCn1c(=S)sc2c1nc(C)n1c(Nc3ccccc3)nnc21 is greater than or equal to 40%
Output: Criterion met

Task: # check: growth of CCOC(=O)c1c(C)nc2ccccc2c1/C=C/c1ccc(OC)cc1 is greater than or equal to 40%
Output: Criterion met

Task: # check: growth of Nc1n[nH]c2ccc([C@@H]3Nc4cc5[nH]ncc5cc4[C@H]4C5CCC(C5)[C@@H]34)cc12 (some centres undefined) is greater than or equal to 40%
Output: Criterion met

Task: # check: growth of N#Cc1c(-c2ccccc2)c(C#N)c2c(C#N)c(N)nn2c1N is greater than or equal to 40%
Output: Criterion not met

Task: # check: growth of COc1cc(/C=C/c2cc(/C=C/c3ccc(O)c(OC)c3)n(C(=O)Nc3ccc(F)cc3)n2)ccc1O is greater than or equal to 40%
Output: Criterion not met

Task: # check: growth of CC(C)C[C@@H](C(=O)N[C@H](C(=O)OC1CCCC1)c1ccccc1)[C@H](O)C(=O)NO is greater than or equal to 40%
Output: Criterion met

Task: # check: growth of C=C1C(=O)O[C@H]2[C@H]1CC/C(COC(=O)c1cc3cc(F)ccc3[nH]1)=C\CC[C@@]1(C)O[C@@H]21 is greater than or equal to 40%
Output: Criterion not met

Task: # check: growth of CCOC(=O)c1c(C)nn(CC(O)c2ccccc2)c1NC(=O)Nc1cccc(F)c1 (centres undefined) is greater than or equal to 40%
Output: Criterion met

* * *

Reported growth values for the following molecules.
# Test system: M14 melanoma
# Experiment Summary: NCI-60 one-dose screen, 48 h (100 = growth as untreated, 0 = no growth, -100 = all killed)
# Conditions Used: 10 µM unless noted
Compounds without any hit were thinned out: in the full panel of roughly 83,000, 20% have a hit.
Just the number please, in %, no unit attached.

Task: Entry Cc1[nH]c(/C=C/C(=O)c2ccc(C(F)(F)F)c(F)c2)c(C)c1C(=O)NCC(C)C has what growth?
Output: 104

New cases:
Task: Entry CCN(CC)CCCC(C)Nc1ccc2cc(OC)ccc2n1 (centres undefined) has what growth?
Output: 99.3

Task: Entry N#C/C(=C\c1ccc(-c2ccc(Cl)cc2)o1)c1ccc(Cl)cc1 has what growth?
Output: 81.4

* * *

# System: KM12 colon
# Experiment Summary: NCI-60 one-dose screen, 48 h
# Conditions Used: 10 µM unless noted
The panel holds about 83,000 compounds, 20% with a hit somewhere; the sample as a whole holds those more often. Activity calls are given as the source filed them. Rule for the calls: active = growth percent below 10; inactive = the rest.
Would you mind answering with one of these outcomes? active, inactive

Would you please look over these solved cases?
Task: Assay result, entry COc1cc2oc(-c3cccc(NC(=O)c4ccc5c(c4)OCO5)c3)cc(=O)c2c(OC)c1OC — outcome?
Output: inactive

Task: Assay result, entry O=C1/C(=C/c2cccc([N+](=O)[O-])c2)COc2ccc(O)cc21 — outcome?
Output: inactive

New cases:
Task: Assay result, entry O=C(O)C1CN(c2cccc(Cl)c2)N(c2cccc(Cl)c2)C1=O (stereo unspecified) — outcome?
Output: inactive

Task: Assay result, entry Cc1cc(N2CCN(C)CC2)nc(NCc2cc(Nc3ccnc4cc(Cl)ccc34)ccc2F)n1 — outcome?
Output: inactive

Task: Assay result, entry O=C(CCCCNC(=O)c1cc(=O)c(O)co1)Nc1ccccc1 — outcome?
Output: inactive

Task: Assay result, entry CCN(CC)CCN(CCN(CC)CC)c1ccccc1 — outcome?
Output: inactive

Task: Assay result, entry CCNC(=O)Oc1ccc(/C(=C(/C)Cc2ccc(OC)cc2)c2ccc(OCCN3CCCC3)cc2)cc1 — outcome?
Output: inactive

* * *

# Test system: MOLT-4 leukemia
# Experiment Summary: NCI-60 one-dose screen, 48 h (100 = growth as untreated, 0 = no growth, -100 = all killed)
# Conditions Used: 10 µM unless noted
The panel holds about 83,000 compounds, 20% with a hit somewhere; the sample as a whole holds those more often. Active and inactive are the calls of the source. How the source made its calls: active means growth percent below 10; inactive means the rest.
Reported growth values for the following compounds.

Examples with their reported growth follow.
Task: Entry CCNc1nc(-c2ccc(F)cc2)c(C#N)c(=O)n1C has what growth?
Output: 71.6% (inactive)

Task: Entry Cc1nn(-c2ccccc2)c(/N=C/N(C)C)c1/C=C/C(=O)c1ccc(Cl)cc1 has what growth?
Output: 60.9% (inactive)

Task: Entry CCCCCCOC(=O)CC1=C(C)/C(=C/c2[nH]c(-c3ccc[nH]3)cc2OC)N=C1C has what growth?
Output: -30.3% (active)

Task: Entry Cc1cc2oc(=O)cc(CP(=O)(O)O)c2cc1O has what growth?
Output: 104% (inactive)

Task: Entry CCOC(=O)NN1CC(O)=C(c2nc(-c3ccc(Br)cc3)cs2)C1=N has what growth?
Output: 75.9% (inactive)

Then there is this compound:
Task: Entry CCN1C(=O)N(CC)C2C1NN=c1s/c(=C\c3ccccc3Br)c(=O)n12 (stereo unspecified) has what growth?
Output: 15.2% (inactive)

* * *

# Test system: SF-539 CNS
# Experiment Summary: NCI-60 one-dose screen, 48 h (100 = growth as untreated, 0 = no growth, -100 = all killed)
# Conditions Used: 10 µM unless noted
About 83,000 compounds went through this panel and 20% of them were active in at least one assay; those are over-represented in the sample as a whole.
Readout Label: growth (%)
Just the number please, in %, no unit attached.

Task: Entry Cc1cc(C)cc(Nc2ccc([N+](=O)[O-])c(NCCN3CCOCC3)n2)c1 has what growth?
Output: -11.3

New cases:
Task: Entry CCN1C(=O)N(CC)C2C1NN=c1s/c(=C\c3cc4ccccc4[nH]3)c(=O)n12 (stereo not drawn) has what growth?
Output: -21.9

From: PubChem BioAssay (NCI)
